# assayed_target: T1, DLL3 (target ligand immobilized on a SA sensor chip via streptavidin capture) (Homo sapiens (Human), UniProt Q9NYJ7 27-492, limits assumed)
# T1 sequence: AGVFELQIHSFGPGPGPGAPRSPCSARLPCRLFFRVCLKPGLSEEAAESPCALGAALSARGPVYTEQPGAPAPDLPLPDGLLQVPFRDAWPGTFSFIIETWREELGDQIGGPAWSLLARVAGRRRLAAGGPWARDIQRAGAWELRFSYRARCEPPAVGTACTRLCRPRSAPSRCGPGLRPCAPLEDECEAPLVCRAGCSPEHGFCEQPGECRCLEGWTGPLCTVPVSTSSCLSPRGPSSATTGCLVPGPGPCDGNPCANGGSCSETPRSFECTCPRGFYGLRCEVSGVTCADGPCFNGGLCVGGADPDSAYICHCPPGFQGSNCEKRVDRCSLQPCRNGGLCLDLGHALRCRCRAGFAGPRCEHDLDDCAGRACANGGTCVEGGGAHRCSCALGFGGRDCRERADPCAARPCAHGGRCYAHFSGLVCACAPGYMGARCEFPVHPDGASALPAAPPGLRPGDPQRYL
# assay_text: SPR, Biacore S200, target ligand on SA chip, 25 C, 1:1 fit
Bridges are numbered along the chain shown (N, C = ends). The star is where a group is joined. DOTA = O=C(O)CN1CCN(CC(=O)O)CCN(CC(=O)*)CCN(CC(=O)O)CC1
measure_name: Kd (nM)

Solved cases below.
Ac-MWKICSDWQNCWP-NH2 (disulfide 5-11; SMILES CC[C@H](C)[C@H](NC(=O)[C@H](CCCCN)NC(=O)[C@H](Cc1c[nH]c2ccccc12)NC(=O)[C@H](CCSC)NC(C)=O)C(=O)N[C@H]1CSSC[C@@H](C(=O)N[C@@H](Cc2c[nH]c3ccccc23)C(=O)N2CCC[C@H]2C(N)=O)NC(=O)[C@H](CC(N)=O)NC(=O)[C@H](CCC(N)=O)NC(=O)[C@H](Cc2c[nH]c3ccccc23)NC(=O)[C@H](CC(=O)O)NC(=O)[C@H](CO)NC1=O) [SEQ ID NO 70]: 340
Ac-AWTICNNWHDCWP-NH2 (disulfide 5-11; SMILES CC[C@H](C)[C@H](NC(=O)[C@@H](NC(=O)[C@H](Cc1c[nH]c2ccccc12)NC(=O)[C@H](C)NC(C)=O)[C@@H](C)O)C(=O)N[C@H]1CSSC[C@@H](C(=O)N[C@@H](Cc2c[nH]c3ccccc23)C(=O)N2CCC[C@H]2C(N)=O)NC(=O)[C@H](CC(=O)O)NC(=O)[C@H](Cc2c[nH]cn2)NC(=O)[C@H](Cc2c[nH]c3ccccc23)NC(=O)[C@H](CC(N)=O)NC(=O)[C@H](CC(N)=O)NC1=O) [SEQ ID NO 86]: 7.6
Ac-MWTACNNWHDCWP-NH2 (disulfide 5-11; SMILES CSCC[C@H](NC(C)=O)C(=O)N[C@@H](Cc1c[nH]c2ccccc12)C(=O)N[C@H](C(=O)N[C@@H](C)C(=O)N[C@H]1CSSC[C@@H](C(=O)N[C@@H](Cc2c[nH]c3ccccc23)C(=O)N2CCC[C@H]2C(N)=O)NC(=O)[C@H](CC(=O)O)NC(=O)[C@H](Cc2c[nH]cn2)NC(=O)[C@H](Cc2c[nH]c3ccccc23)NC(=O)[C@H](CC(N)=O)NC(=O)[C@H](CC(N)=O)NC1=O)[C@@H](C)O) [SEQ ID NO 88]: 86
Ac-MWTLCDNWQTCWP-NH2 (disulfide 5-11; SMILES CSCC[C@H](NC(C)=O)C(=O)N[C@@H](Cc1c[nH]c2ccccc12)C(=O)N[C@H](C(=O)N[C@@H](CC(C)C)C(=O)N[C@H]1CSSC[C@@H](C(=O)N[C@@H](Cc2c[nH]c3ccccc23)C(=O)N2CCC[C@H]2C(N)=O)NC(=O)[C@H]([C@@H](C)O)NC(=O)[C@H](CCC(N)=O)NC(=O)[C@H](Cc2c[nH]c3ccccc23)NC(=O)[C@H](CC(N)=O)NC(=O)[C@H](CC(=O)O)NC1=O)[C@@H](C)O) [SEQ ID NO 73]: 42

[a] Ac-MWTICNNWHDCWP-NH2 (disulfide 5-11) [SEQ ID NO 69]
[b] {DOTA}-WTICNNWHDCWP-NH2 (disulfide 4-10) [SEQ ID NO 80]
Which gives the smaller Kd number: a or b ? Which one? Tell me its label.
a
